Can you tell me IC50 for the items I'm about to list?
study system: wild type MLL1 four-member complex (MLL1-4C) (Homo sapiens, UniProt Q03164)
test method notes: MLL1 LC-MS Assay
Assay type: biochemical
experimental setup: read-out: LCMS

Fill in IC50 for each of the 3 compounds listed.
1. Nc1ncnc2c1ncn2Cc1c(N2CC[C@](N)(C(=O)NC3CC3)C2)ccc(C(F)(F)F)c1CN1CCC1
2. Nc1ncnc2c1ncn2Cc1c(Br)cc(Cl)cc1N1CC[C@](N)(c2cc(C(F)(F)F)ccn2)C1
3. Nc1ncnc2c1ncn2Cc1c(N2CC[C@](N)(c3ccccc3)C2)ccc(F)c1C(F)(F)F

Result:
< 50 nM
< 50 nM
50 to 100 nM

Hi there! I need IC50 for each item below, if you can.
1. Nc1ncnc2c1ncn2Cc1c(N2CC[C@](N)(C(=O)NC3CC3)C2)ccc(F)c1CN1CCCC(F)(F)C1
2. C[C@H]1CN(C(=O)[C@@]2(N)CCN(c3ccc(F)c(C(F)(F)F)c3Cn3cnc4c(N)ncnc43)C2)CCO1
3. Nc1ncnc2c1ncn2Cc1c(N2CC[C@](N)(C(=O)N3CCC[C@@H](O)C3)C2)ccc(F)c1C(F)(F)F
4. Nc1ncnc2c1ncn2Cc1c(Br)cc(Cl)cc1N1CC[C@](N)(c2nnn[nH]2)C1

Result:
["50 to 100 nM", "50 to 100 nM", "50 to 100 nM", "< 50 nM"]

Origin of the recorded values: patent US20220380371A1
